- Tested on: ANKK1
- stated_conditions: concentration: 1 μM, replicates: in singlicate; n = 1;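 further: KINOMEscan kinase panel screen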
metric_name: %Inh
Output should be the measured figure followed by the unit it is expressed in.

Measured %Inh, `COc1ccc(CNC(=O)NC2CCN(c3ccnc(Nc4ccc(F)cc4)n3)CC2)cc1` : 0%

Just so you know, measured %Inh for `COC(=O)Nc1nc2cc(Oc3ccc(NC(=O)Nc4cc(C(F)(F)F)ccc4F)cn3)ccc2[nH]1.Cl.Cl` came out at 8%

Measured %Inh of `c1ccc(-c2cnc3nccnn23)cc1` : 0%

molecule `COc1cc2c(cc1OCCN1CCNCC1)ncc1c3ccc(C#N)cc3[nH]c21` , %Inh observed: 37%

Given item `O=C(Nc1cccc(Oc2ccc3nc(NC(=O)C4CC4)cn3n2)c1)c1ccccc1C(F)(F)F` , the value recorded as its %Inh is 1%

Record summary for O=C(NC1CCN(c2ccnc(Nc3ccc(F)cc3)n2)C1)c1cc2ccccc2s1 (stereo not drawn) : reported %Inh = 0%

In plain terms, Cl.Cl.NCC(NCc1ccc(-c2ccnc3[nH]ccc23)s1)c1ccccc1 (stereo not drawn) has a documented %Inh of 22%

Measured %Inh, `Clc1ccc(-c2nn3ncccc3c2-c2ccnc(Nc3ccc4c(c3)OCCO4)n2)cc1` : 0%

// `CNC(=O)c1ccccc1Nc1nc(Nc2ccc(N3CCOCC3)cc2)ncc1Cl.Cl` : %Inh value = 12%

What the record says about `Nc1ncnc2c1nc(-c1ccccc1)n2-c1ccccc1` : %Inh is 29%

Record summary for `O=C(Nc1n[nH]c2cc(-c3ccoc3)ccc12)C1CC1` : reported %Inh = 23%

`Cc1ccc(C(=O)N2CC[C@@H](O)C2)cc1-n1c(C)cc(OCc2ccc(F)cc2F)c(Br)c1=O` yielded %Inh of 0%

Reported %Inh ( `Cc1cccc(NC(=O)Nc2ccc(Oc3ncnc4ccn(C)c34)cc2)c1` ) = 0%

Notebook: `O=C(Nc1cccc(-c2nn3ccccc3c2-c2ccnc(Nc3cccc(F)c3)n2)c1)c1c(F)ccc(F)c1Cl` , %Inh read as 2%

The recorded %Inh for `c1ccc(-c2n[nH]cc2Nc2ccnc3ccccc23)nc1` is 75%

Short answer for `CN1CCN(Cc2cccc(-c3ccc4c(Nc5ccc(Oc6ccccc6)cc5)ccnc4c3)c2)CC1` : %Inh was 6%

Item: `COc1cccc(C2=C(Nc3ccc(Cl)c(C(=O)O)c3)C(=O)NC2=O)c1` | %Inh: 99.4%

In plain terms, `CCS(=O)(=O)c1ccc(OC)c(Nc2nccc(-c3c(-c4cccc(NC(=O)c5c(F)cccc5F)c4)nn4ncccc34)n2)c1` has a documented %Inh of 0%

---

Would you kindly list %Inh for each of these compounds?
- Test system: PLK1
- stated_conditions: concentration: 1 μM, replicates: in singlicate; n = 1
# number only, unit % dropped from output

Form field %Inh, entry COc1ccc(CNC(=O)NC2CCN(c3ccnc(Nc4ccc(F)cc4)n3)CC2)cc1 [GSK1379788] : 0

get_value(item= Nc1ncnc2c1nc(-c1ccccc1)n2-c1ccccc1 [SKF-97293] , readout=%Inh) returns 68

get_value(item= Nc1ncc(-c2ccc3nccc(-c4ccncc4)c3c2)cc1S(=O)(=O)N1CCOCC1 [GSK1627798] , readout=%Inh) returns 0

Entry `Cc1cccc(NC(=O)Nc2ccc(Oc3ncnc4ccn(C)c34)cc2)c1` — recorded %Inh = 0

The compound O=C(Nc1n[nH]c2nc(-c3ccc(O)cc3)ccc12)C1CC1 [SB-710363] showed %Inh equal to 0

Per the records, this compound ( COc1cc(Nc2nccc(N3CCC(NC(=O)c4cc5ccccc5s4)C3)n2)cc(OC)c1OC (stereo not drawn) [GSK1379760] ) has %Inh equal to 17

The reported %Inh of the compound O=c1[nH]cc(-c2ccc(N3CCOCC3)cc2)c2sc(-c3cn[nH]c3)cc12 [GSK2276055] was 7

The reported value for C[C@@H]1CC[C@@H](C(=O)Nc2ccccc2)CN1c1cc(-c2ccc3c(N)n[nH]c3c2)nc(N)n1 [GSK2286062] in terms of %Inh is 0

// recorded %Inh for Cc1cccc(Nc2nc(N[C@H]3CCNC3)ncc2C(N)=O)c1.Cl [GSK2197149] : 0

Per the record, `COCCOCCOc1cc2ncc3c4ccc(C#N)cc4[nH]c3c2cc1OC` has %Inh of 0

# %Inh (compound: CCn1c(-c2nonc2N)nc2c(C#CC(C)(C)O)nc(OC[C@H](N)c3ccccc3)cc21 [GSK943949] ) is 0

Value of measured %Inh for the entry CSc1cccc2c(-c3ccncn3)c(-c3ccc(F)cc3)nn12 [GW514786] : 7

%Inh in this record for CN(c1ccc(NC(=O)Nc2cc(C(F)(F)F)ccc2F)cc1)c1ccnc(Nc2ccc(S(N)(=O)=O)cc2)n1 [GW809893] : 3

For record COc1cccc(C2=C(Nc3ccc(Cl)c(C(=O)O)c3)C(=O)NC2=O)c1 [SB-390769] the listed %Inh is 0

CC(C)c1nc(-c2cccc(NS(=O)(=O)c3c(F)cccc3F)c2F)c(-c2ccnc(Nc3ccc(N4CCOCC4)nc3)n2)s1 [GSK2008607] yielded %Inh of 0

Sample Cl.Cl.NCC(C(=O)Nc1cc(Br)c(-c2ccnc3[nH]ccc23)s1)c1ccccc1 (stereo not drawn) [GSK1269851] ; %Inh observed: 0

Short answer for Cc1occc1-c1ncc(OC[C@@H](N)Cc2c[nH]c3ccccc23)cc1-c1ccc2[nH]nc(C)c2c1.O=C(O)C(F)(F)F [GSK682037] : %Inh was 0

Per the records, this compound ( Cc1ccc(C)c(NC(=O)NC2CCN(c3ccnc(Nc4ccc(F)cc4)n3)C2)c1 (stereo not drawn) [GSK1379720] ) has %Inh equal to 0

The compound Cc1ccc(S(=O)(=O)Nc2ccc(Nc3nccc(Nc4cccc5[nH]ncc45)n3)cc2)cc1 [GSK581271] showed %Inh equal to 0

// CN(C)Cc1ccc(-c2ccc3c(Nc4ccc(Oc5ccccn5)cc4)ccnc3c2)o1 [GW567148] : %Inh value = 0

Value of %Inh reported for the compound Cl.NC(=O)c1cccc(Nc2nccc(Nc3ccc(Oc4c(Cl)cccc4Cl)c(Cl)c3)n2)c1 [GW659009] is 0
